Source: PubChem BioAssay (NCI)

- Test system: PC-3 prostate
- test protocol: NCI tumour cell line growth inhibition, 48 h
Where a SMILES comes first, the peptide text is derived from it. [ ]: non-standard residue; d: D form. The star is where a group is joined. ξ: configuration not given here. ξF = NC(Cc1ccccc1)C(=O)O; Cbz = O=C(OCc1ccccc1)*; Aib = CC(C)(N)C(=O)O
So I've got a bunch of compounds here, and I need their TGI values.

In: Look up and report measured TGI for this entry: O=C1c2cccnc2C(=O)c2c1c(C(=O)OCCN1CCCCC1)c1ccccn21
Out: 9.59 µM

In: Look up and report measured TGI for this entry: C=C1C[C@@H]2O[C@H]3[C@H]4[C@@H](C[C@@H](C)[C@@H](OC(C)=O)[C@H]42)[C@@H](C)CO[C@@]3(C)[C@H](OC(=O)CCCCCCC)C[C@H]1O
Out: 28.7 µM

In: Look up and report measured TGI for this entry: CC(=O)OCC1OC(c2c(OC(C)=O)cc(C)c3c(=O)cc(/C(C(C)=O)=C(\C)O)oc23)C(OC(C)=O)C(OC(C)=O)C1OC(C)=O (stereo unspecified)
Out: > 100 µM

In: Look up and report measured TGI for this entry: CC1(C)N=C(N)N=C(N)N1c1ccc(OCCCNC(=O)Nc2cccc(S(=O)(=O)F)c2)c(Cl)c1
Out: > 100 µM

In: Look up and report measured TGI for this entry: O=c1cnnc(N/N=C/c2ccccc2O)[nH]1
Out: > 100 µM

In: Look up and report measured TGI for this entry: O=C(NCCCl)Nc1cccnc1
Out: > 100 µM

In: Look up and report measured TGI for this entry: C[C@@H]1C(=O)O[C@H]1[C@H](O)CO
Out: > 100 µM

In: Look up and report measured TGI for this entry: N#Cc1c(NC(=O)c2ccc(F)cc2)sc2c1CCCC2
Out: > 25 µM

In: Look up and report measured TGI for this entry: CCOC(=O)CNC(=O)C(Cc1ccccc1)NC(=O)C(C)(C)NC(=O)OCc1ccccc1 (stereo unspecified) (Cbz-[Aib]-[ξF]-Gly-OEt)
Out: > 100 µM

In: Look up and report measured TGI for this entry: CCCCCCn1c(SC)nc(COC(=O)NC)c1COC(=O)NC
Out: 31.8 µM

In: Look up and report measured TGI for this entry: O=C(C=P(c1ccccc1)(c1ccccc1)c1ccccc1)CCl
Out: 3.34 µM

In: Look up and report measured TGI for this entry: CN(C)CC(=O)Nc1ccc2ncnc(Nc3ccc(Oc4cccc(C(F)(F)F)c4)c(Cl)c3)c2c1
Out: 4.5 µM

In: Look up and report measured TGI for this entry: Cn1c2c(c3ccccc31)CCN(CCCCN1CCN(c3ccccc3)CC1)C2=O
Out: 86.6 µM

In: Look up and report measured TGI for this entry: O=C1OC(C2Cc3ccc4c(c3C2=O)CCC4)c2ccccc21 (stereo unspecified)
Out: > 100 µM

In: Look up and report measured TGI for this entry: OC[C@H]1NC[C@@H](O)[C@@H](O)[C@H]1O
Out: > 100 µM

In: Look up and report measured TGI for this entry: COc1c(/C=C/C=O)cc2c(c1OC)OCO2
Out: > 100 µM

In: Look up and report measured TGI for this entry: CC(=O)c1cc2c(s1)C(=O)c1sccc1C2=O
Out: 0.133 µM

In: Look up and report measured TGI for this entry: CCCCN1C(=O)c2c(Br)sc(Br)c2C1=O
Out: > 100 µM

In: Look up and report measured TGI for this entry: Cn1c(=O)c2nc3c(=O)n(C)c(=O)n(CC(N)=O)c3nc2n(C)c1=O
Out: > 100 µM

In: Look up and report measured TGI for this entry: COc1cc(C2OC(N)=C(C#N)C3=C2C(C)CCC3)cc(OC)c1OC (stereo unspecified)
Out: > 100 µM

In: Look up and report measured TGI for this entry: CC(O)CN1c2ccccc2Sc2ccccc21 (stereo unspecified)
Out: > 100 µM

* * *

So I've got a bunch of compounds here, and I need their TGI values.
- Test system: HCT-116 colon
- test protocol: NCI tumour cell line growth inhibition, 48 h
Where a SMILES comes first, the peptide text is derived from it. [ ]: non-standard residue; d: D form. The star is where a group is joined. ξ: configuration not given here. ξF = NC(Cc1ccccc1)C(=O)O; Cbz = O=C(OCc1ccccc1)*; Aib = CC(C)(N)C(=O)O

In: Look up and report measured TGI for this entry: OC[C@H]1NC[C@@H](O)[C@@H](O)[C@H]1O
Out: > 100 µM

In: Look up and report measured TGI for this entry: CCCC1CC(=O)NC(=O)C1C(=O)OC(C)(C)C (configuration not stated)
Out: > 100 µM

In: Look up and report measured TGI for this entry: COc1cc(/C=C2\N=C(c3ccccc3)N(c3ccc(C(=O)c4ccccc4)cc3N3C(=O)/C(=C/c4ccc(O)c(OC)c4)N=C3c3ccccc3)C2=O)ccc1O
Out: 23.2 µM

In: Look up and report measured TGI for this entry: CCCCCCn1c(SC)nc(COC(=O)NC)c1COC(=O)NC
Out: 31.7 µM

In: Look up and report measured TGI for this entry: CN/C=C(\C(=O)c1ccc(OC)c(OC)c1)c1ccc(OC)cc1
Out: 18.1 µM

In: Look up and report measured TGI for this entry: CC(=O)NCCCCN(CCCNC(C)=O)C(=O)CNS(=O)(=O)c1cccc2c(N(C)C)cccc12
Out: > 100 µM

In: Look up and report measured TGI for this entry: COc1ccc(N2C(=O)C3c4[nH]c5ccccc5c4C4CC(C)(C)CC(C)(C)C4C3C2=O)cc1 (configuration not stated)
Out: 30.4 µM

In: Look up and report measured TGI for this entry: CCOC(=O)CNC(=O)C(Cc1ccccc1)NC(=O)C(C)(C)NC(=O)OCc1ccccc1 (configuration not stated) (Cbz-[Aib]-[ξF]-Gly-OEt)
Out: > 100 µM

In: Look up and report measured TGI for this entry: CC(NCc1c(O)ccc2ccc(=O)oc12)C(=O)O (configuration not stated)
Out: > 100 µM

In: Look up and report measured TGI for this entry: N#Cc1c(NC(=O)c2ccc(F)cc2)sc2c1CCCC2
Out: > 25 µM

In: Look up and report measured TGI for this entry: Cc1ccc(S(=O)(=O)N2CCN(C=S)CC2)cc1
Out: > 100 µM

In: Look up and report measured TGI for this entry: CC(=O)NC(Cc1ccccc1)NC(=O)O (configuration not stated)
Out: > 100 µM

In: Look up and report measured TGI for this entry: COc1ccc(NC2=C(I)C(=O)c3ncccc3C2=O)cc1
Out: 2.51 µM

In: Look up and report measured TGI for this entry: O/N=C(/CC(O)(C(F)(F)F)C(F)(F)F)c1ccccc1
Out: > 10 µM

In: Look up and report measured TGI for this entry: COc1ccc(C2CC(c3ccc(Nc4ccnc5cc(Cl)ccc45)cc3)=NN2C=O)cc1 (configuration not stated)
Out: > 100 µM

In: Look up and report measured TGI for this entry: COC(=O)c1cc2oc(/C=C3/SC(=S)N(N)C3=O)cc2n1Cc1ccccc1
Out: 18.9 µM

In: Look up and report measured TGI for this entry: COc1cc2oc(-c3ccccc3)cc(=O)c2c(O)c1C
Out: > 100 µM

In: Look up and report measured TGI for this entry: Clc1cc(Cl)c2cc3cccc[n+]3cc2c1Cl
Out: > 100 µM

In: Look up and report measured TGI for this entry: O=C1OC(C2Cc3ccc4c(c3C2=O)CCC4)c2ccccc21 (configuration not stated)
Out: > 100 µM

In: Look up and report measured TGI for this entry: Oc1c(Cl)cc(Cl)cc1/C=N/Nc1nnc(N/N=C/c2cc(Cl)cc(Cl)c2O)c2ccccc12
Out: > 100 µM

In: Look up and report measured TGI for this entry: O=C(O)c1cc(=O)cc(C(=O)O)o1
Out: > 100 µM

In: Look up and report measured TGI for this entry: CC(c1ccc2c(c1)CCC1C2CC2OC23CC=CC(=O)[C@]13C)C1C[C@]2(C)O[C@]2(C)[C@H](O)O1 (some centres not stated)
Out: > 100 µM

* * *

- System: A498 renal
- test protocol: NCI tumour cell line growth inhibition, 48 h
So I've got a bunch of compounds here, and I need their GI50 values.

In: Look up and report measured GI50 for this entry: N#Cc1c(NC(=O)c2ccc(F)cc2)sc2c1CCCC2
Out: > 25000 nM

In: Look up and report measured GI50 for this entry: CCOC(=O)C1=C(C)NC(=O)NC1CN1C(=O)c2ccccc2C1=O (centres undefined)
Out: > 100000 nM

In: Look up and report measured GI50 for this entry: COc1ccc(CCN(CC(=O)N(CC(N)=O)C2CCC[C@@H]2OCc2ccccc2)C(=O)CN(C(=O)CN(CCc2ccc(Cl)cc2)C(=O)CN(C(=O)CN(C)Cc2ccccc2F)[C@H](C)C2CCCCC2)[C@H](C)C2CCCCC2)cc1OC (some centres undefined)
Out: 1840 nM

In: Look up and report measured GI50 for this entry: COC(=O)c1cc2oc(/C=C3/SC(=S)N(N)C3=O)cc2n1Cc1ccccc1
Out: 2160 nM
